Origin of measurements: patent US10323038B2

molecular target: MAGL (Mus musculus (Mouse), UniProt O35678); test: In vitro competitive activity-based protein profiling, MAGL (mouse); assay type: biochemical; conditions: 1 μM, read-out: MAGL % inh. 1 μM (mouse)
Sequence (O35678 whole entry): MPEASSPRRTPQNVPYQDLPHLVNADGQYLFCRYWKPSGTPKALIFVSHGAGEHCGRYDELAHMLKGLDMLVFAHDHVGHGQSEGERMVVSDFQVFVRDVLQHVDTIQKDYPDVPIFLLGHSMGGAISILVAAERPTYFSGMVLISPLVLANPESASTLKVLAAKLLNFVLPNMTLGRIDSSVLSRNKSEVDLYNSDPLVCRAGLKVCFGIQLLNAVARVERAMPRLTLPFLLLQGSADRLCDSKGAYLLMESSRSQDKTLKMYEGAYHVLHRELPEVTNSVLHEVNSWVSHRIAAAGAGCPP
parameter: inhibition at 1 µM

> print(dat)
                                   compound                            assayed.target  value.reported
1  CC(=O)N(C)c1cnn(C(=O)N2CCC3(CCN(Cc4ccc(F)cc4)C3)C2)c1 (stereo not drawn)  MAGL (Mus musculus (Mouse), UniProt O35678)        0 to 25%
2  CC(=O)N(C)c1cnn(C(=O)N2CC3CN(Cc4ccc(F)c(N5CCCC5)c4)CC3C2)c1 (stereo not drawn)  MAGL (Mus musculus (Mouse), UniProt O35678)           ≥ 75%
3  CC(=O)N(C)c1cnn(C(=O)N2CCC3(CCN(Cc4ccc(-c5cccnn5)cc4Cl)C3)C2)c1 (stereo not drawn)  MAGL (Mus musculus (Mouse), UniProt O35678)           ≥ 75%
4  CC(=O)N(C)c1cnn(C(=O)N2C[C@H]3C[C@H](N(C)Cc4ccc(Cl)cc4)C[C@H]3C2)c1  MAGL (Mus musculus (Mouse), UniProt O35678)           ≥ 75%
5  CC(=O)N(C)c1cnn(C(=O)N2CCN(Cc3cccc(C(F)(F)F)c3)CC2)c1  MAGL (Mus musculus (Mouse), UniProt O35678)           ≥ 75%

For every item in the list below, what is its measured inhibition at 1 µM?
1. CC(=O)N(C)c1cnn(C(=O)N2CC3CN(Cc4ccc(N5CCCC5)cc4Cl)CC3C2)c1 (stereo not drawn)
2. CC(=O)N(C)c1cnn(C(=O)N2CCC3(CC2)CN(Cc2ccc(CN4CCOCC4)cc2)C3)c1
3. CS(=O)(=O)Nc1cnn(C(=O)N2CCC3(CCN(Cc4cc(Cl)ccc4C(F)(F)F)C3)C2)c1 (stereo not drawn)
4. CN(Cc1ccc(N2CCCC2)cc1C(F)(F)F)[C@H]1C[C@@H]2CN(C(=O)n3cc(NS(C)(=O)=O)cn3)C[C@@H]2C1

["≥ 75%", "50 to 75%", "25 to 50%", "50 to 75%"]
